Provenance of the data: BigSolDB 2.1

conditions: in acetone, 303.15 K
quantityKind: solubility (mole fraction)

- OC[C@@H](O)C(O)[C@@H](O)CO (stereo partly specified): 0.000302

* * *

settings: in acetone, 323.15 K
quantityKind: solubility (mole fraction)

- OC[C@@H](O)C(O)[C@@H](O)CO (stereo partly specified): 0.001

* * *

details: in acetone, 318.15 K
quantityKind: solubility (mole fraction)

• OC[C@@H](O)C(O)[C@@H](O)CO (stereo partly specified) = 0.000739

* * *

settings: in ethanol, 318.15 K
quantityKind: solubility (mole fraction)

* OC[C@@H](O)C(O)[C@@H](O)CO (stereo partly specified) | 0.00703

* * *

conditions: in ethanol, 303.15 K
quantityKind: solubility (mole fraction)

* OC[C@@H](O)C(O)[C@@H](O)CO (stereo partly specified) | 0.00309

* * *

settings: in ethanol, 313.15 K
quantityKind: solubility (mole fraction)

* OC[C@@H](O)C(O)[C@@H](O)CO (stereo partly specified) | 0.00521

* * *

settings: in ethanol, 298.15 K
quantityKind: solubility (mole fraction)

• OC[C@@H](O)C(O)[C@@H](O)CO (stereo partly specified) = 0.0024

* * *

conditions: in ethanol, 308.15 K
quantityKind: solubility (mole fraction)

- OC[C@@H](O)C(O)[C@@H](O)CO (stereo partly specified): 0.00396

* * *

conditions: in acetone, 293.15 K
quantityKind: solubility (mole fraction)

- OC[C@@H](O)C(O)[C@@H](O)CO (stereo partly specified): 0.000202

* * *

settings: in ethanol, 293.15 K
quantityKind: solubility (mole fraction)

* OC[C@@H](O)C(O)[C@@H](O)CO (stereo partly specified) | 0.00172

* * *

details: in acetone, 298.15 K
quantityKind: solubility (mole fraction)

- OC[C@@H](O)C(O)[C@@H](O)CO (stereo partly specified): 0.00024

* * *

conditions: in ethanol, 323.15 K
quantityKind: solubility (mole fraction)

* OC[C@@H](O)C(O)[C@@H](O)CO (stereo partly specified) | 0.0096
